Tested on: HOP-18 NSCLC
Test: NCI tumour cell line growth inhibition, 48 h
parameter: TGI

INSERT INTO assay_data (compound, observedresult) VALUES
  ('CCOC(=O)/C(=C\c1ccc(O)c(OC)c1)C(=O)c1ccccc1', '> 100 µM'),
  ('CN1C(=O)c2ccccc2NC(=O)c2cnn(C)c21', '> 100 µM'),
  ('O=c1cccccc1NCCOCCNc1cccccc1=O', '> 100 µM');

Switching to the query record.
Challenge: What TGI value was documented for this compound, [O-]c1c2c(nn1-c1ccccc1)c1ccccc1c[n+]2Cc1ccccc1 ?
Response given: > 100 µM

----------
Test system: UACC-62 melanoma
Assay: NCI tumour cell line growth inhibition, 48 h
# TGI values compiled below
Write down the numeric answer in µM and omit the unit.

Reference set (5 entries):
INSERT INTO assay_data (compound, parameter, unitdescriptor, observedresult) VALUES
  ('C=CC(Cl)(CBr)CCC(Br)=C(C)C (configuration not stated)', 'TGI', 'µM', 36),
  ('CN(C)CCNC(=O)c1cc2ccccc2c2nc3ccccc3nc12', 'TGI', 'µM', 7.3),
  ('Cn1c2ccccc2c2c(-c3ccccc3)[n+]3ccccc3nc21', 'TGI', 'µM', 39.3),
  ('O=C(CN1CCN(c2ncnc3ccccc23)CC1)Nc1ccc(Cl)cc1C(=O)c1ccccc1Cl', 'TGI', 'µM', 1.5),
  ('COc1ccc2nc(-c3cc(-c4cc(OC)c(OC)c(OC)c4)n[nH]3)[nH]c2c1', 'TGI', 'µM', 2.52);

Challenge: What TGI value was documented for this compound, Cc1cc(N2CCCCC2)nc(N(CCCNc2ccnc3cc(Cl)ccc23)Cc2ccco2)n1 ?
Response given: 3.73

Challenge: Now give it for COc1cccc(C2c3cc4c(cc3OC(C)(O)C2C)OCO4)c1O (configuration not stated) too.
Response given: 31.1

Challenge: Now give it for C=C1C(=O)O[C@@H]2C[C@@]3(C)CCC[C@H](C)C3=C[C@H]12 too.
Response given: 19.8

Challenge: Now give it for CCOC(=O)/C(=C\c1ccc(O)c(OC)c1)C(=O)c1ccccc1 too.
Response given: 28.6

Challenge: Now give it for COc1cc(/C=C2\C[C@H]3[C@@H]4CC=C5C[C@@H](O)CC[C@]5(C)[C@H]4CC[C@]3(C)[C@H]2O)cc(OC)c1OC too.
Response given: 39.3

Challenge: Now give it for N#C/C(=C\c1ccc(-c2ccc(Cl)cc2)o1)C(=O)Nc1ncc(Cc2ccc(Cl)cc2)s1 too.
Response given: 6.57

Challenge: Now give it for Cn1cncc1[C@@](N)(c1ccc(Cl)cc1)c1ccc2c(c1)c(-c1cccc(Cl)c1)cc(=O)n2C too.
Response given: 12.5

----------
# TGI values compiled below
System: SF-295 CNS
Assay: NCI tumour cell line growth inhibition, 48 h

INSERT INTO results (compound, observedresult) VALUES
  ('COc1cc(O)cc(/C=C/c2ccc(O)cc2)c1', '84.3 µM');

Challenge: What TGI value was documented for this compound, O=[N+]([O-])c1ccc(Br)c([N+](=O)[O-])c1 ?
Response given: 5.96 µM

Challenge: Now give it for COC1=C2CC(C)CC(OC)[C@@H](OC(=O)CCN)[C@H](C)/C=C(\C)C(OC(N)=O)C(OC)/C=C\C=C(/C)C(=O)NC(=CC1=O)C2=O (stereo partly specified) too.
Response given: 30.1 µM

Challenge: Now give it for O=S(=O)(/C=C/c1ccc(Cl)cc1Cl)Cc1ccccc1CS(=O)(=O)/C=C/c1ccc(Cl)cc1Cl too.
Response given: > 100 µM

Challenge: Now give it for C=C(C)C1CC=C(C)[C@](O)(C2(O)C[C@H](C(=C)C)CC=C2C)C1 (stereo partly specified) too.
Response given: > 100 µM

Challenge: Now give it for COC(=O)[C@@H]1CN(C(=O)c2ccccc2)C(=O)N1 too.
Response given: > 100 µM

----------
# TGI values compiled below
Tested on: SK-MEL-2 melanoma
Assay: NCI tumour cell line growth inhibition, 48 h

Reference set (3 entries):
INSERT INTO results (compound, parameter, observedresult) VALUES
  ('CCN(CC)CCCC(C)Nc1cnc(C(=O)Nc2ccc(Cl)c3cccnc23)cn1 (centres undefined)', 'TGI', '4.34 µM'),
  ('O=S(=O)(/C=C/c1ccc(Cl)cc1Cl)Cc1ccccc1CS(=O)(=O)/C=C/c1ccc(Cl)cc1Cl', 'TGI', '> 100 µM'),
  ('CC(=N/NC(=S)N1CCCCC1)/C(=N\NC(=S)N1CCCCC1)c1ccccc1', 'TGI', '4.62 µM');

Challenge: What TGI value was documented for this compound, CCOC(=O)c1c(N)nn2c1cc1cccccc12 ?
Response given: 45.1 µM

----------
System: NCI-H522 lung
Assay: NCI tumour cell line growth inhibition, 48 h
Rule: TGI under 10 µM gives Criterion not met, otherwise Criterion met.

Look over these answered cases.
INSERT INTO measurements (compound, group) VALUES
  ('O=C(Nc1ccccc1O)c1cccc(NC2=C(Cl)C(=O)N(Cc3ccccc3)C2=O)c1', 'Criterion met'),
  ('CS(=O)(=O)NNS(=O)(=O)c1cccc([N+](=O)[O-])c1', 'Criterion met'),
  ('CCN(CC)CCCC(C)Nc1cnc(C(=O)Nc2ccc(Cl)c3cccnc23)cn1 (stereo not drawn)', 'Criterion not met');

Consider the additional compound presented here.
Challenge: Please check the record O=[N+]([O-])c1ccc(Br)c([N+](=O)[O-])c1 and state if its TGI is at or above 10 µM.
Response given: Criterion not met

----------
Test system: SN12C renal
Assay: NCI tumour cell line growth inhibition, 48 h; in the data active means GI50 below about 0.43 µM; inactive means the rest
Mark one answer only. Choices: active, inactive

Look over these answered cases.
INSERT INTO measurements (compound, group) VALUES
  ('COc1cc2nc3sc(C(=O)Nc4ccc(C(=O)OC(C)C)cc4)c(C(=O)Nc4ccc(Cl)cc4C)n3c(=O)c2cc1OC', 'inactive'),
  ('CCCN(CCC)C(=O)C1=Cc2ccc(-c3ccc(C(=O)N4CCCC4)cc3)cc2N=C(N)C1', 'inactive'),
  ('CCOc1cccc(/C=N/NC(=O)c2ccc(Nc3ccnc(C(F)(F)F)c3)cc2)c1O', 'inactive');

Challenge: Fill in: this test's call for CC[C@H](C)[C@H]1NC(=O)[C@@H](N[C@](C)(O)[C@@H](N)CC(C)C)[C@@H](C)OC(=O)[C@H](Cc2ccc(OC)cc2)N(C)C(=O)[C@@H]2CCCN2C(=O)[C@H](CC(C)C)NC(=O)[C@@H](C)C(=O)[C@H](C(C)C)OC(=O)C[C@@H]1O is ___
Response given: active

Challenge: Now give it for COc1ccc(N(CC(=O)NCCC[Te]c2ccccc2)C(=O)c2ccccc2)cc1 too.
Response given: inactive

Challenge: Now give it for CC[C@@H](C(=O)[C@@H](C)[C@@H](O)[C@H](C)[C@@H]1O[C@@H]([C@@H](CC)C(=O)O)CC[C@@H]1C)C1O[C@]2(C=CC(=O)[C@]3(CC[C@@](C)([C@H]4CC[C@](O)(CC)[C@H](C)O4)O3)O2)[C@H](C)C[C@@H]1C (stereo not given in full) too.
Response given: active

Challenge: Now give it for Oc1ccc2cc(Br)ccc2c1-c1c(O)ccc2cc(Br)ccc12 too.
Response given: inactive

----------
# GI50 values compiled below
Tested on: PC-3 prostate
Assay: NCI tumour cell line growth inhibition, 48 h

INSERT INTO measurements (compound, parameter, observedresult) VALUES
  ('Oc1ccc2cc(Br)ccc2c1-c1c(O)ccc2cc(Br)ccc12', 'GI50', '3.24 µM'),
  ('O=C1CC(c2ccc(N3CCOCC3)cc2)(c2ccsc2)NC(=O)C1Sc1ccccc1Cl (stereo unspecified)', 'GI50', '53.1 µM');

Challenge: Enter reported GI50 observed with PC-3 prostate for COc1cc(NS(C)(=O)=O)ccc1Nc1c2ccc(Cl)cc2nc2c(OC)cccc12
Response given: 0.782 µM

Challenge: Now give it for CCCCCCCCCCCCCC(=O)O[C@H]1CC[C@H](NC(=O)[C@H](OC)[C@H](O)[C@@H](O)[C@H](O)/C=C/C(C)C)C(=O)NC1 too.
Response given: 0.0152 µM

Challenge: Now give it for COC(=O)Nc1nc2ccc(Oc3ccc(NC(=O)Nc4cccc(C(=O)O)c4)cc3)cc2[nH]1 too.
Response given: 8.44 µM

Challenge: Now give it for Cc1cc2c(cc1Cl)SC1=CC(=O)N(c3ccccc3)C1=NS2(=O)=O too.
Response given: 37.4 µM

----------
Test system: UO-31 renal
Assay: NCI tumour cell line growth inhibition, 48 h
parameter: TGI (µM)
Write down the numeric answer in µM and omit the unit.

INSERT INTO results (compound, unitdescriptor, observedresult) VALUES
  ('CC(=O)N1N=C2/C(=C/c3ccccc3)CC(C)CC2C1c1ccccc1 (stereo not given)', 'µM', 31.1);

Challenge: What TGI value was documented for this compound, N#C/C(=C\c1ccc(-c2ccc(Cl)cc2)o1)C(=O)Nc1ncc(Cc2ccc(Cl)cc2)s1 ?
Response given: 7.87

Challenge: Now give it for O=[N+]([O-])c1ccc(Br)c([N+](=O)[O-])c1 too.
Response given: 0.779
